src = patent US9932338B2

target: Human M3 receptor (Homo sapiens, UniProt P20309); construct: purchased Perkin Elmer; assay: M3 receptor radioligand binding assay; details: human M3 receptor membranes, [N-methyl-3H] scopolamine methyl chloride; Ki from IC50 by Cheng and Prusoff; read-out: M3 binding affinity (Ki class)
Sequence (P20309 whole entry): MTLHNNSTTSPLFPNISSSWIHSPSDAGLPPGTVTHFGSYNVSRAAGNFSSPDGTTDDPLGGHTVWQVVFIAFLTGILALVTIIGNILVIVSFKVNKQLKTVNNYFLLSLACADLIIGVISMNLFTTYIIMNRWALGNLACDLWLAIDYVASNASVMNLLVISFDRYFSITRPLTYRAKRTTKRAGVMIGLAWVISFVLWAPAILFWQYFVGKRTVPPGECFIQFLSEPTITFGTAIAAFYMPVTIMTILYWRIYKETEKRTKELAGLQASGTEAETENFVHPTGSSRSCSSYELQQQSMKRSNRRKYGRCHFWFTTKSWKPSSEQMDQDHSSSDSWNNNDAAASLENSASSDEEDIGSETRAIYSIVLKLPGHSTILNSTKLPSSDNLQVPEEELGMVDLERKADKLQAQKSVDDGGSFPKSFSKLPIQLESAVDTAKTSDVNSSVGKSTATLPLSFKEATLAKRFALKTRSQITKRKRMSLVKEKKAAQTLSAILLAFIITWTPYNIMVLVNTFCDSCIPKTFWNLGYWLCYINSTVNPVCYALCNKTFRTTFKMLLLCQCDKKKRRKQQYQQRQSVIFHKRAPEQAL
pKi: −log10 of the molar value.
measurement_name: pKi

O=C(NC1(C(=O)OCC2CCN(Cc3ccccc3)CC2)CCc2ccccc21)c1cccc(OCCCCCCNC[C@H](O)c2ccc(O)c3[nH]c(=O)ccc23)c1 (stereo partly drawn) [Compound 9] | > 9.00
O=C(NCCCCNC[C@H](O)c1ccc(O)c2[nH]c(=O)ccc12)c1ccc(CNC2(C(=O)O[C@H]3CN4CCC3CC4)CCc3ccccc32)s1 (stereo partly drawn) [Compound 4] | > 9.00
O=C(NC1(C(=O)O[C@H]2CN3CCC2CC3)Cc2ccccc2C1)c1cccc(OCCCCCNC[C@H](O)c2ccc(O)c3[nH]c(=O)ccc23)c1 [Compound 13] | > 9.00
O=C(Cc1ccc(CC(=O)NC2(C(=O)O[C@H]3CN4CCC3CC4)CCc3ccccc32)cc1)Nc1ccc(CNC[C@H](O)c2ccc(O)c3[nH]c(=O)ccc23)cc1 (stereo partly drawn) [Compound 18] | 8.00 to 9.00
O=C(O[C@H]1CN2CCC1CC2)C1(NCc2cccc(OCc3ccc(CNC[C@H](O)c4ccc(O)c5[nH]c(=O)ccc45)cc3)c2)CCc2ccccc21 (stereo partly drawn) [Compound 20] | 8.00 to 9.00
O=C(NCCCCNC[C@H](O)c1ccc(O)c2[nH]c(=O)ccc12)c1cccc(C(=O)NC2(C(=O)O[C@H]3CN4CCC3CC4)CCc3ccccc32)c1 (stereo partly drawn) [Compound 8] | 8.00 to 9.00
